Values were extracted from patent US20110311550A1.

Molecular target: HCV E1E2 antigen, isolate UKN6.5.8 (hepatitis C virus, isolate UKN6.5.8)
Experiment: ELISA, Fab on E1E2 antigen
Answer each item with its documented OD 450 nm.
Numbers only, in OD 450 nm.

Reference set, count: 2
binder | value-measured
Fab P1 (Fab, V domains shown) VH: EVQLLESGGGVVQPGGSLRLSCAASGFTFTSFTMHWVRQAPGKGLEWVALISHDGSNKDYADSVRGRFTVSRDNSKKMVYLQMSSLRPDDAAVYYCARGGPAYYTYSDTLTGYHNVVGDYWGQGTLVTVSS VL: ELTQSPGTLSLSPGERATLSCRASQVRGFLAWFQQKPGQAPRLLIYGASNRAPGIPDRFSGSGSGTDFTLTISRLEPEDFAVYYCQQYGDSPPITFGQGTRLEIKR | 0.06
Fab P1a (Fab, V domains shown) VH: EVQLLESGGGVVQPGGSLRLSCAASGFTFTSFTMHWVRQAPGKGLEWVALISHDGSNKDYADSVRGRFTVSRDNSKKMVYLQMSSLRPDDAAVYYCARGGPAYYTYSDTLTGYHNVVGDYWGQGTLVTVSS VL: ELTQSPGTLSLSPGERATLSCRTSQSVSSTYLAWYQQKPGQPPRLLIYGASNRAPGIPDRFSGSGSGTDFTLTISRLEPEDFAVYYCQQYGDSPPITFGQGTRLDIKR | 0.05

# input for lookup
Determine from records and report OD 450 nm for Fab U1 (Fab, V domains shown) VH: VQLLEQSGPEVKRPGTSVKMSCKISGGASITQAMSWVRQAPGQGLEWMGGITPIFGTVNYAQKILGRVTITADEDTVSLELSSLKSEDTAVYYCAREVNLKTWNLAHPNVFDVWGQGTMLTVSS VL: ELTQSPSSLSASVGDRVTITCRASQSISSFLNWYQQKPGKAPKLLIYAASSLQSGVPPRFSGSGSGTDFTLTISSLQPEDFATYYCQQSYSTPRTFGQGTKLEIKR
0.06
